- Test system: HL-60(TB) leukemia
- measurement-notes: NCI-60 one-dose screen, 48 h (100 = growth as untreated, 0 = no growth, -100 = all killed)
- measurement-setup: 10 µM unless noted
About 83,000 compounds went through this panel and 20% of them were active in at least one assay; those are over-represented in the sample as a whole.
reported-endpoint: growth (%)

[
  {
    "compound": "Cc1ccc(NC(=O)/C=C/c2ccccc2)c(C(N)=O)c1",
    "reported-endpoint": "growth",
    "readout-value": -25.5
  },
  {
    "compound": "O=C1C(Cl)=C(NCCN2CCOCC2)C(=O)c2ncccc21",
    "reported-endpoint": "growth",
    "readout-value": -45.5
  },
  {
    "compound": "N#CC1=C(N)Oc2c(c(=O)[nH]c3ccc(Cl)cc23)C12C(=O)c1ccccc1C2=O",
    "reported-endpoint": "growth",
    "readout-value": 99.8
  },
  {
    "compound": "CCNCCCCNCCCCNCCCCNCCCCNCC",
    "reported-endpoint": "growth",
    "readout-value": 127
  },
  {
    "compound": "COc1cc(C2CC(c3ccc(Cl)cc3)=NN2C=O)ccc1Oc1ccnc2cc(Cl)ccc12 (stereo unspecified)",
    "reported-endpoint": "growth",
    "readout-value": 85.9
  },
  {
    "compound": "Cc1ccc(-c2c(-c3ccccc3)c(=O)oc3ccc(C)cc23)cc1",
    "reported-endpoint": "growth",
    "readout-value": 87
  },
  {
    "compound": "CCCCN(Cc1ccc(C(=O)NO)cc1)C(=O)Nc1ccc(OCCCCCCCCCn2cc(CCCCC(=O)N[C@H](C(=O)N3C[C@H](O)C[C@H]3C(=O)NCc3ccc(-c4scnc4C)cc3)C(C)(C)C)nn2)cc1",
    "reported-endpoint": "growth",
    "readout-value": 21.6
  },
  {
    "compound": "COC(=O)CCC1=C(C)/C(=C/c2[nH]c(-c3ccc[nH]3)cc2OC)N=C1C",
    "reported-endpoint": "growth",
    "readout-value": -23.3
  },
  {
    "compound": "COc1ccc(C(=O)N=Nc2c(O)n(C)c3ccccc23)cc1",
    "reported-endpoint": "growth",
    "readout-value": 99.4
  },
  {
    "compound": "COC(=O)c1cncc(C(=O)Nc2ccc(-n3cnc4ccccc43)cc2)c1",
    "reported-endpoint": "growth",
    "readout-value": 93.7
  },
  {
    "compound": "COc1ccc(CCc2nc3cc(-c4c(C)noc4C)ccc3n2CCN2CCOCC2)cc1",
    "reported-endpoint": "growth",
    "readout-value": 5.97
  }
]

* * *

- Test system: HL-60(TB) leukemia
- measurement-notes: NCI-60 one-dose screen, 48 h (100 = growth as untreated, 0 = no growth, -100 = all killed)
- measurement-setup: 10 µM unless noted
- Experimental: Growth inhibition of the HL-60(TB) human tumor cell line is measured as a screen for anti-cancer activity. Cells are grown in 96 well plates and exposed to the test compound for 48 hours. Compounds are tested at a single concentration, which is 10^-5 M for most compounds. The reported endpoint is percent growth (GI% or GIPRCNT), where numbers from 0 - 100% represent growth inhibition, and numbers from -100% - 0 represent cell death. For example, a value of 40 represents 60% growth inhibition. […]
Compounds without any hit were thinned out: in the full panel of roughly 83,000, 20% have a hit.
Property: growth; scope: individual molecules
reported-endpoint: growth (%)

[
  {
    "structure-smiles": "COc1nc(N)nc(-n2c(-c3ccc(C)cc3)nc3ccccc32)c1NCc1ccc(C)cc1",
    "measured-on": "HL-60(TB) leukemia",
    "scale-unit": "%",
    "readout-value": 101
  },
  {
    "structure-smiles": "C=CCOc1ccc(/C(Cl)=N/N=C(\\Cl)c2cc(OC)c(OC)c(OC)c2)cc1",
    "measured-on": "HL-60(TB) leukemia",
    "scale-unit": "%",
    "readout-value": 39.6
  },
  {
    "structure-smiles": "CSc1cc(SC)ncn1",
    "measured-on": "HL-60(TB) leukemia",
    "scale-unit": "%",
    "readout-value": 101
  }
]

* * *

Below is a list of entries, each paired with its recorded growth value.
- Tested on: UO-31 renal
- measurement-notes: NCI-60 one-dose screen, 48 h (100 = growth as untreated, 0 = no growth, -100 = all killed)
- measurement-setup: 10 µM unless noted
- Procedure: Growth inhibition of the UO-31 human tumor cell line is measured as a screen for anti-cancer activity. Cells are grown in 96 well plates and exposed to the test compound for 48 hours. Compounds are tested at a single concentration, which is 10^-5 M for most compounds. The reported endpoint is percent growth (GI% or GIPRCNT), where numbers from 0 - 100% represent growth inhibition, and numbers from -100% - 0 represent cell death. For example, a value of 40 represents 60% growth inhibition. […]
About 83,000 compounds went through this panel and 20% of them were active in at least one assay; those are over-represented in the sample as a whole.
reported-endpoint: growth (%)

[
  {
    "compound": "c1cnc2c(c1)ccc1ncccc12",
    "scale-unit": "%",
    "readout-value": 93.2
  },
  {
    "compound": "CCC[CH2][Sn]([CH2]CCC)([CH2]CCC)[O]C(=O)CC",
    "scale-unit": "%",
    "readout-value": -90.4
  },
  {
    "compound": "C/C(=N/OC(=O)N(C)C)c1cc(Cl)ccc1Cl",
    "scale-unit": "%",
    "readout-value": 77.4
  },
  {
    "compound": "N#C[Se]CCCNS(=O)(=O)C1CC2C=CC1C2 (centres undefined)",
    "scale-unit": "%",
    "readout-value": -98.7
  },
  {
    "compound": "CCOc1cc(C=C(C#N)C#N)cc(Br)c1O",
    "scale-unit": "%",
    "readout-value": 88.9
  },
  {
    "compound": "CC(=O)N(C)C1=Nc2ccc(Cl)cc2C(c2ccccc2)=[N+]([O-])C1",
    "scale-unit": "%",
    "readout-value": 80.7
  },
  {
    "compound": "C[C@]12CC[C@@H]3C4=C(CC[C@H]3[C@@H]1CC[C@@H]2O)CC(=O)CC4",
    "scale-unit": "%",
    "readout-value": 92
  },
  {
    "compound": "CC[CH2][Pb]([CH2]CC)([CH2]CC)[O]C(=O)C(F)(F)F",
    "scale-unit": "%",
    "readout-value": -100
  },
  {
    "compound": "COP(=S)(OC)Oc1ccc(SC)c(C)c1",
    "scale-unit": "%",
    "readout-value": 80.2
  },
  {
    "compound": "C[C@]12C[C@H](O)[C@H]3[C@@H](CCC4=CC(=O)CC[C@@]43C)[C@@H]1CC[C@@H]2O",
    "scale-unit": "%",
    "readout-value": 77.7
  },
  {
    "compound": "CC[C@]12C=CCN3CC[C@@]4(c5ccc(OC)cc5N(C)[C@H]4[C@@](O)(C(=O)OC)[C@@H]1OC(=O)CCCN1CCN(CCCC(=O)O[C@@H]4[C@]5(CC)C=CCN6CC[C@@]7(c8ccc(OC)cc8N(C)[C@H]7[C@@]4(O)C(=O)OC)[C@@H]65)CC1)[C@@H]32",
    "scale-unit": "%",
    "readout-value": -88.8
  },
  {
    "compound": "Cc1cc([N+](=O)[O-])c(Cl)cc1NS(=O)(=O)c1ccccc1",
    "scale-unit": "%",
    "readout-value": 63.8
  },
  {
    "compound": "COc1ccc(-c2ccc(OC)c(OC)c2OC)cc1",
    "scale-unit": "%",
    "readout-value": 39.4
  },
  {
    "compound": "CN(Cc1cccnc1)N=O",
    "scale-unit": "%",
    "readout-value": 84.7
  },
  {
    "compound": "CC(N)Cc1ccc(O)cc1 (centres undefined)",
    "scale-unit": "%",
    "readout-value": 79.3
  },
  {
    "compound": "CC1(C)N=C(N)N=C(N)N1c1ccc(OCCCCOc2ccc(S(=O)(=O)F)cc2)c(Cl)c1",
    "scale-unit": "%",
    "readout-value": 67.7
  },
  {
    "compound": "O=C(C(=O)N1CCCC1)c1cn(CCCCCn2cc(C(=O)C(=O)N3CCCC3)c3ccccc32)c2ccccc12",
    "scale-unit": "%",
    "readout-value": 61.6
  },
  {
    "compound": "COc1ccc(NP2(=O)OCC(C)(N)CO2)cc1 (centres undefined)",
    "scale-unit": "%",
    "readout-value": 75.6
  },
  {
    "compound": "O=CC(Br)C(Br)c1ccccc1 (centres undefined)",
    "scale-unit": "%",
    "readout-value": 74.1
  }
]
